Origin of the recorded values: paper PMC10397247

Biological target: T1, 4H2742-AA
T1 chain: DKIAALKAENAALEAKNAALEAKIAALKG
Assay: two-hybrid library CCmax;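 also: natural log of median RNA to DNA barcode read ratio; higher means stronger binding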
Details: mean of both orientations
# binarize interaction score: threshold -1 inclusive, high side yes, low side no

Worked cases, answers included:
Binder	Class
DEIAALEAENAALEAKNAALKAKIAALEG [4H189-AA]	yes
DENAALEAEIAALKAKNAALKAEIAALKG [4H1146-AA]	no
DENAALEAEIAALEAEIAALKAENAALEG [4H1035-AA]	no
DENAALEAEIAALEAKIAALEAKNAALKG [4H1064-AA]	no
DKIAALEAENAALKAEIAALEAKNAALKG [4H2248-AA]	no

# input Given the entry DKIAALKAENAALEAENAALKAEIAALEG [4H2713-AA] , answer whether its interaction score meets or surpasses -1.
# output yes

# input Given the entry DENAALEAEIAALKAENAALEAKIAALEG [4H1109-AA] , answer whether its interaction score meets or surpasses -1.
# output no

# input Given the entry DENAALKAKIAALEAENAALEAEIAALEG [4H1809-AA] , answer whether its interaction score meets or surpasses -1.
# output no

# input Given the entry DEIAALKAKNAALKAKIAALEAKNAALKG [4H1000-AA] , answer whether its interaction score meets or surpasses -1.
# output no
